tested-on: JAK2 (Homo sapiens)
Sequence (O60674 whole entry, species assumed): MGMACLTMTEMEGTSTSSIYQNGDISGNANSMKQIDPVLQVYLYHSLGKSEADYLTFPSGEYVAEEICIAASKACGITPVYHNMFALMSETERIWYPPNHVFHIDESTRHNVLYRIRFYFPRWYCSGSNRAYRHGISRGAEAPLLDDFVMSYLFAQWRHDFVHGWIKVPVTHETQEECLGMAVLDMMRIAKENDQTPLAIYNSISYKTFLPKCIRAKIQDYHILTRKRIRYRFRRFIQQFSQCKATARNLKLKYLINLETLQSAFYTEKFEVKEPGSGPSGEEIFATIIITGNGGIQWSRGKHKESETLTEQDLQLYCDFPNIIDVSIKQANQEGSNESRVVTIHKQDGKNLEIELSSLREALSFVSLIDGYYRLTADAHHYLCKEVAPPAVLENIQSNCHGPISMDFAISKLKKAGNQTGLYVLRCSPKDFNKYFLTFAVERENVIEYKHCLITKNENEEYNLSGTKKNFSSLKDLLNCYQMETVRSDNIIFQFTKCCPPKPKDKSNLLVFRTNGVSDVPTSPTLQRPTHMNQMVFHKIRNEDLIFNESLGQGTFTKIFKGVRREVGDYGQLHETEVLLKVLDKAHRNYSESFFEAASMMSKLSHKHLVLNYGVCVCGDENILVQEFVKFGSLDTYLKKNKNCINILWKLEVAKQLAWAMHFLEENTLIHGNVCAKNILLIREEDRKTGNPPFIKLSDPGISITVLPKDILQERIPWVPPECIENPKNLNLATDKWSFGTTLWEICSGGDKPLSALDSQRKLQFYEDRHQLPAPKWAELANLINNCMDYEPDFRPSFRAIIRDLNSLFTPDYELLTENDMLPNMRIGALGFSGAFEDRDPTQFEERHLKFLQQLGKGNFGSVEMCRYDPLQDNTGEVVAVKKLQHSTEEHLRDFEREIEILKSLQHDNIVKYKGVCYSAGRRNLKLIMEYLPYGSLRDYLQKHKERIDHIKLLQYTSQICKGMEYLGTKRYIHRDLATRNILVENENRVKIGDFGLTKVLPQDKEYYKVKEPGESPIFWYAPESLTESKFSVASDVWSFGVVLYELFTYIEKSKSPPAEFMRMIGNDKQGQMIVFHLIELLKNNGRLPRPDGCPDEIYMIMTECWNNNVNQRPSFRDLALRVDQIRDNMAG
protocol-details: JAK2 inhibition assay (radioactive enzyme assay, as for JAK3)
Assay type: biochemical
condition-description: average Ki if more than one value determined
Give measured Ki for each item. Keep answers brief.

Task item: Lab note: need Ki for C[C@@H](Nc1cccc(-c2c[nH]c3ncc(Cl)cc23)n1)C1CCCCC1 on JAK2 (Homo sapiens), anyone have it?
Reply: 0.5 to 5 µM

Task item: Lab note: need Ki for Cc1cc(C(F)(F)F)cc(-c2c[nH]c3ncc(Cl)cc23)n1 on JAK2 (Homo sapiens), anyone have it?
Reply: > 5 µM

Task item: Lab note: need Ki for CC(=O)N1[C@H](C)CN(c2cccc(-c3c[nH]c4ncc(NC(=O)c5ccccc5F)cc34)n2)C[C@@H]1C on JAK2 (Homo sapiens), anyone have it?
Reply: < 0.5 µM
